assay: Colorant stabilization effect (photostabilizer, sunlight exposure); parameters: key: A: No change; B: No almost change; C: Yes change; conditions: Blue No. 1 0.0001 wt %; photostabilizer 0.05 wt %
Recorded Metric: Sunlight exposure (80 MJ) Appearance

Worked cases, Sunlight exposure (80 MJ) Appearance given:
Inquiry: Quickly give me recorded Sunlight exposure (80 MJ) Appearance for COc1ccc(C(=O)CC(=O)c2ccc(C(C)(C)C)cc2)cc1 [reference compound]
Reply text: B

Inquiry: Please report Sunlight exposure (80 MJ) Appearance for the following compound: Oc1nncc(N2CCOCC2)c1N1CCOCC1 [4,5-Dimorpholino-3-hydroxypyridazine]
Reply text: A

Inquiry: Recall and state the measured Sunlight exposure (80 MJ) Appearance for COc1ccc(C(=O)c2ccccc2)c(O)c1 [2-Hydroxy-4-methoxybenzophenone, reference compound] .
Reply text: B

Inquiry: Supply measured Sunlight exposure (80 MJ) Appearance of CCCCCCCCOC(=O)C=Cc1ccc(OC)cc1 [Octyl p-methoxycinnamate, reference compound] in your reply.
Reply text: C

Others:
Inquiry: Supply recorded Sunlight exposure (80 MJ) Appearance for COc1cc(O)c(C(=O)c2ccccc2)cc1S(=O)(=O)[O-].[Na+] [reference compound] here.
Reply text: B

* * *

experiment: Perfume stabilization effect (photostabilizer, sunlight exposure, judgement by perfumier); set-up: key: A: No change; B: No almost change; C: Yes change; conditions: Base perfume Fruity 0.03 wt %; photostabilizer 0.1 wt %
Recorded Metric: Sunlight exposure (80 MJ) Smell evaluation

As a guide, the following entries are already answered.
Inquiry: Output measured Sunlight exposure (80 MJ) Smell evaluation for this item: COc1ccc(C(=O)CC(=O)c2ccc(C(C)(C)C)cc2)cc1 [reference compound]
Reply text: B

Inquiry: For the compound CCCCCCCCOC(=O)C=Cc1ccc(OC)cc1 [Octyl p-methoxycinnamate, reference compound] , report Sunlight exposure (80 MJ) Smell evaluation.
Reply text: C

Inquiry: Please report Sunlight exposure (80 MJ) Smell evaluation for the following compound: COc1cc(O)c(C(=O)c2ccccc2)cc1S(=O)(=O)[O-].[Na+] [reference compound]
Reply text: B

Inquiry: Look up and report measured Sunlight exposure (80 MJ) Smell evaluation for this entry: Oc1nncc(N2CCOCC2)c1N1CCOCC1 [4,5-Dimorpholino-3-hydroxypyridazine]
Reply text: A

Next:
Inquiry: Name the recorded Sunlight exposure (80 MJ) Smell evaluation of the compound listed here: COc1ccc(C(=O)c2ccccc2)c(O)c1 [2-Hydroxy-4-methoxybenzophenone, reference compound]
Reply text: B

* * *

assay: Colorant stabilization effect (photostabilizer, sunlight exposure); design: key: ΔE color difference (Lab) vs. color before sunlight exposure; conditions: Red No. 227 0.0001 wt %; photostabilizer 0.05 wt %
Recorded Metric: Sunlight exposure (80 MJ) ΔE
Note: the reply should be a number with no unit written.

Solved cases below.
Inquiry: Kindly indicate its recorded Sunlight exposure (80 MJ) ΔE. Item: COc1cc(O)c(C(=O)c2ccccc2)cc1S(=O)(=O)[O-].[Na+] [reference compound]
Reply text: 0.80

Inquiry: Respond only with Sunlight exposure (80 MJ) ΔE recorded for Oc1nncc(N2CCOCC2)c1N1CCOCC1 [4,5-Dimorpholino-3-hydroxypyridazine]
Reply text: 0.49

Inquiry: Output Sunlight exposure (80 MJ) ΔE of COc1ccc(C(=O)CC(=O)c2ccc(C(C)(C)C)cc2)cc1 [reference compound]
Reply text: 0.95

Inquiry: Give the measured Sunlight exposure (80 MJ) ΔE for CCCCCCCCOC(=O)C=Cc1ccc(OC)cc1 [Octyl p-methoxycinnamate, reference compound]
Reply text: 1.22

Then there is this compound:
Inquiry: Return Sunlight exposure (80 MJ) ΔE for the following compound: COc1ccc(C(=O)c2ccccc2)c(O)c1 [2-Hydroxy-4-methoxybenzophenone, reference compound]
Reply text: 0.71

* * *

assay: Colorant stabilization effect (photostabilizer, sunlight exposure); parameters: key: ΔE color difference (Lab) vs. color before sunlight exposure; settings: Red No. 213 0.0001 wt %; photostabilizer 0.05 wt %
Recorded Sunlight exposure (80 MJ) ΔE for the following compounds

Known Sunlight exposure (80 MJ) ΔE results, listed for orientation:
Inquiry: Give recorded Sunlight exposure (80 MJ) ΔE. COc1ccc(C(=O)c2ccccc2)c(O)c1 [2-Hydroxy-4-methoxybenzophenone, reference compound]
Reply text: 1.34

Inquiry: Please look at this compound and report its Sunlight exposure (80 MJ) ΔE: Oc1nncc(N2CCOCC2)c1N1CCOCC1 [4,5-Dimorpholino-3-hydroxypyridazine]
Reply text: 0.78

Inquiry: Look up and report measured Sunlight exposure (80 MJ) ΔE for this entry: CCCCCCCCOC(=O)C=Cc1ccc(OC)cc1 [Octyl p-methoxycinnamate, reference compound]
Reply text: 2.55

Inquiry: For the compound COc1cc(O)c(C(=O)c2ccccc2)cc1S(=O)(=O)[O-].[Na+] [reference compound] , report Sunlight exposure (80 MJ) ΔE.
Reply text: 1.28

---
Inquiry: Query Sunlight exposure (80 MJ) ΔE for COc1ccc(C(=O)CC(=O)c2ccc(C(C)(C)C)cc2)cc1 [reference compound]
Reply text: 1.02

* * *

experiment: Colorant stabilization effect (photostabilizer, sunlight exposure); set-up: key: ΔE color difference (Lab) vs. color before sunlight exposure; details: Blue No. 1 0.0001 wt %; photostabilizer 0.05 wt %
# Sunlight exposure (80 MJ) ΔE annotations

Below, each entry is followed by its recorded Sunlight exposure (80 MJ) ΔE result.
Inquiry: Look up Sunlight exposure (80 MJ) ΔE of COc1ccc(C(=O)c2ccccc2)c(O)c1 [2-Hydroxy-4-methoxybenzophenone, reference compound] and report it.
Reply text: 1.76

Inquiry: Consider the compound COc1ccc(C(=O)CC(=O)c2ccc(C(C)(C)C)cc2)cc1 [reference compound] and give its recorded Sunlight exposure (80 MJ) ΔE.
Reply text: 1.49

Inquiry: Specify measured Sunlight exposure (80 MJ) ΔE for CCCCCCCCOC(=O)C=Cc1ccc(OC)cc1 [Octyl p-methoxycinnamate, reference compound] .
Reply text: 5.23

Inquiry: Specify reported Sunlight exposure (80 MJ) ΔE for the compound shown: COc1cc(O)c(C(=O)c2ccccc2)cc1S(=O)(=O)[O-].[Na+] [reference compound]
Reply text: 1.67

Next compound, Sunlight exposure (80 MJ) ΔE to be filled in.
Inquiry: Kindly indicate its recorded Sunlight exposure (80 MJ) ΔE. Item: Oc1nncc(N2CCOCC2)c1N1CCOCC1 [4,5-Dimorpholino-3-hydroxypyridazine]
Reply text: 1.11

* * *

assay: Drug stabilization effect (photostabilizer, sunlight exposure); parameters: key: A: No change; B: No almost change; C: Yes change; settings: drug 2-o-α-α-glucopyranosyl-L-ascorbic acid 2.0; photostabilizer 0.05; amounts wt %
Recorded Metric: Sunlight exposure (80 MJ) Appearance

These recorded examples may help you get a feel for the data.
Inquiry: Let me know recorded Sunlight exposure (80 MJ) Appearance for COc1cc(O)c(C(=O)c2ccccc2)cc1S(=O)(=O)[O-].[Na+] [reference compound] , thanks.
Reply text: B

Inquiry: // Input: COc1ccc(C(=O)c2ccccc2)c(O)c1 [2-Hydroxy-4-methoxybenzophenone, reference compound] . Output its Sunlight exposure (80 MJ) Appearance only.
Reply text: B

Inquiry: Indicate its recorded Sunlight exposure (80 MJ) Appearance; the compound in question is Oc1nncc(N2CCOCC2)c1N1CCOCC1 [4,5-Dimorpholino-3-hydroxypyridazine]
Reply text: A

Inquiry: Give the measured Sunlight exposure (80 MJ) Appearance for CCCCCCCCOC(=O)C=Cc1ccc(OC)cc1 [Octyl p-methoxycinnamate, reference compound]
Reply text: C

Attention now turns to another entry.
Inquiry: Return reported Sunlight exposure (80 MJ) Appearance. Input compound: COc1ccc(C(=O)CC(=O)c2ccc(C(C)(C)C)cc2)cc1 [reference compound]
Reply text: B

* * *

test: Colorant stabilization effect (photostabilizer, sunlight exposure); set-up: key: A: No change; B: No almost change; C: Yes change; details: Red No. 401 0.001 wt %; photostabilizer 0.05 wt %
Recorded Metric: Sunlight exposure (80 MJ) Appearance

Known results for molecules:
Inquiry: Return the recorded Sunlight exposure (80 MJ) Appearance value; entry: COc1ccc(C(=O)CC(=O)c2ccc(C(C)(C)C)cc2)cc1 [reference compound]
Reply text: B

Inquiry: Find the measured Sunlight exposure (80 MJ) Appearance of Oc1nncc(N2CCOCC2)c1N1CCOCC1 [4,5-Dimorpholino-3-hydroxypyridazine] and report it.
Reply text: A

Inquiry: Supply Sunlight exposure (80 MJ) Appearance value. Item: COc1cc(O)c(C(=O)c2ccccc2)cc1S(=O)(=O)[O-].[Na+] [reference compound]
Reply text: B

Inquiry: Please report the measured Sunlight exposure (80 MJ) Appearance for CCCCCCCCOC(=O)C=Cc1ccc(OC)cc1 [Octyl p-methoxycinnamate, reference compound]
Reply text: C

Could you now consider this next molecule?
Inquiry: Please indicate Sunlight exposure (80 MJ) Appearance recorded for COc1ccc(C(=O)c2ccccc2)c(O)c1 [2-Hydroxy-4-methoxybenzophenone, reference compound]
Reply text: B

* * *

experiment: Perfume stabilization effect (photostabilizer, sunlight exposure, judgement by perfumier); set-up: key: A: No change; B: No almost change; C: Yes change; conditions: Synthetic perfume Rose oxide 0.03 wt %; photostabilizer 0.2 wt %
Recorded Metric: Sunlight exposure (80 MJ) Smell evaluation

For orientation, consider the following solved cases.
Inquiry: Supply reported Sunlight exposure (80 MJ) Smell evaluation belonging to this compound: COc1ccc(C(=O)c2ccccc2)c(O)c1 [2-Hydroxy-4-methoxybenzophenone, reference compound]
Reply text: B

Inquiry: State its Sunlight exposure (80 MJ) Smell evaluation for this compound: COc1cc(O)c(C(=O)c2ccccc2)cc1S(=O)(=O)[O-].[Na+] [reference compound]
Reply text: B

Inquiry: Annotate the compound Oc1nncc(N2CCOCC2)c1N1CCOCC1 [4,5-Dimorpholino-3-hydroxypyridazine] with its measured Sunlight exposure (80 MJ) Smell evaluation.
Reply text: A

Inquiry: Identify Sunlight exposure (80 MJ) Smell evaluation associated with the compound COc1ccc(C(=O)CC(=O)c2ccc(C(C)(C)C)cc2)cc1 [reference compound]
Reply text: B

Shifting focus to the compound that follows.
Inquiry: Identify measured Sunlight exposure (80 MJ) Smell evaluation corresponding to CCCCCCCCOC(=O)C=Cc1ccc(OC)cc1 [Octyl p-methoxycinnamate, reference compound]
Reply text: C
